Hi there, I'd appreciate the recorded inhibition at 10 µM for every entry that follows.
# ASSAYED SYSTEM: ATM enzyme (Homo sapiens)
# Construct: purchased Eurofins 14-933
# Sequence (Q13315 whole entry): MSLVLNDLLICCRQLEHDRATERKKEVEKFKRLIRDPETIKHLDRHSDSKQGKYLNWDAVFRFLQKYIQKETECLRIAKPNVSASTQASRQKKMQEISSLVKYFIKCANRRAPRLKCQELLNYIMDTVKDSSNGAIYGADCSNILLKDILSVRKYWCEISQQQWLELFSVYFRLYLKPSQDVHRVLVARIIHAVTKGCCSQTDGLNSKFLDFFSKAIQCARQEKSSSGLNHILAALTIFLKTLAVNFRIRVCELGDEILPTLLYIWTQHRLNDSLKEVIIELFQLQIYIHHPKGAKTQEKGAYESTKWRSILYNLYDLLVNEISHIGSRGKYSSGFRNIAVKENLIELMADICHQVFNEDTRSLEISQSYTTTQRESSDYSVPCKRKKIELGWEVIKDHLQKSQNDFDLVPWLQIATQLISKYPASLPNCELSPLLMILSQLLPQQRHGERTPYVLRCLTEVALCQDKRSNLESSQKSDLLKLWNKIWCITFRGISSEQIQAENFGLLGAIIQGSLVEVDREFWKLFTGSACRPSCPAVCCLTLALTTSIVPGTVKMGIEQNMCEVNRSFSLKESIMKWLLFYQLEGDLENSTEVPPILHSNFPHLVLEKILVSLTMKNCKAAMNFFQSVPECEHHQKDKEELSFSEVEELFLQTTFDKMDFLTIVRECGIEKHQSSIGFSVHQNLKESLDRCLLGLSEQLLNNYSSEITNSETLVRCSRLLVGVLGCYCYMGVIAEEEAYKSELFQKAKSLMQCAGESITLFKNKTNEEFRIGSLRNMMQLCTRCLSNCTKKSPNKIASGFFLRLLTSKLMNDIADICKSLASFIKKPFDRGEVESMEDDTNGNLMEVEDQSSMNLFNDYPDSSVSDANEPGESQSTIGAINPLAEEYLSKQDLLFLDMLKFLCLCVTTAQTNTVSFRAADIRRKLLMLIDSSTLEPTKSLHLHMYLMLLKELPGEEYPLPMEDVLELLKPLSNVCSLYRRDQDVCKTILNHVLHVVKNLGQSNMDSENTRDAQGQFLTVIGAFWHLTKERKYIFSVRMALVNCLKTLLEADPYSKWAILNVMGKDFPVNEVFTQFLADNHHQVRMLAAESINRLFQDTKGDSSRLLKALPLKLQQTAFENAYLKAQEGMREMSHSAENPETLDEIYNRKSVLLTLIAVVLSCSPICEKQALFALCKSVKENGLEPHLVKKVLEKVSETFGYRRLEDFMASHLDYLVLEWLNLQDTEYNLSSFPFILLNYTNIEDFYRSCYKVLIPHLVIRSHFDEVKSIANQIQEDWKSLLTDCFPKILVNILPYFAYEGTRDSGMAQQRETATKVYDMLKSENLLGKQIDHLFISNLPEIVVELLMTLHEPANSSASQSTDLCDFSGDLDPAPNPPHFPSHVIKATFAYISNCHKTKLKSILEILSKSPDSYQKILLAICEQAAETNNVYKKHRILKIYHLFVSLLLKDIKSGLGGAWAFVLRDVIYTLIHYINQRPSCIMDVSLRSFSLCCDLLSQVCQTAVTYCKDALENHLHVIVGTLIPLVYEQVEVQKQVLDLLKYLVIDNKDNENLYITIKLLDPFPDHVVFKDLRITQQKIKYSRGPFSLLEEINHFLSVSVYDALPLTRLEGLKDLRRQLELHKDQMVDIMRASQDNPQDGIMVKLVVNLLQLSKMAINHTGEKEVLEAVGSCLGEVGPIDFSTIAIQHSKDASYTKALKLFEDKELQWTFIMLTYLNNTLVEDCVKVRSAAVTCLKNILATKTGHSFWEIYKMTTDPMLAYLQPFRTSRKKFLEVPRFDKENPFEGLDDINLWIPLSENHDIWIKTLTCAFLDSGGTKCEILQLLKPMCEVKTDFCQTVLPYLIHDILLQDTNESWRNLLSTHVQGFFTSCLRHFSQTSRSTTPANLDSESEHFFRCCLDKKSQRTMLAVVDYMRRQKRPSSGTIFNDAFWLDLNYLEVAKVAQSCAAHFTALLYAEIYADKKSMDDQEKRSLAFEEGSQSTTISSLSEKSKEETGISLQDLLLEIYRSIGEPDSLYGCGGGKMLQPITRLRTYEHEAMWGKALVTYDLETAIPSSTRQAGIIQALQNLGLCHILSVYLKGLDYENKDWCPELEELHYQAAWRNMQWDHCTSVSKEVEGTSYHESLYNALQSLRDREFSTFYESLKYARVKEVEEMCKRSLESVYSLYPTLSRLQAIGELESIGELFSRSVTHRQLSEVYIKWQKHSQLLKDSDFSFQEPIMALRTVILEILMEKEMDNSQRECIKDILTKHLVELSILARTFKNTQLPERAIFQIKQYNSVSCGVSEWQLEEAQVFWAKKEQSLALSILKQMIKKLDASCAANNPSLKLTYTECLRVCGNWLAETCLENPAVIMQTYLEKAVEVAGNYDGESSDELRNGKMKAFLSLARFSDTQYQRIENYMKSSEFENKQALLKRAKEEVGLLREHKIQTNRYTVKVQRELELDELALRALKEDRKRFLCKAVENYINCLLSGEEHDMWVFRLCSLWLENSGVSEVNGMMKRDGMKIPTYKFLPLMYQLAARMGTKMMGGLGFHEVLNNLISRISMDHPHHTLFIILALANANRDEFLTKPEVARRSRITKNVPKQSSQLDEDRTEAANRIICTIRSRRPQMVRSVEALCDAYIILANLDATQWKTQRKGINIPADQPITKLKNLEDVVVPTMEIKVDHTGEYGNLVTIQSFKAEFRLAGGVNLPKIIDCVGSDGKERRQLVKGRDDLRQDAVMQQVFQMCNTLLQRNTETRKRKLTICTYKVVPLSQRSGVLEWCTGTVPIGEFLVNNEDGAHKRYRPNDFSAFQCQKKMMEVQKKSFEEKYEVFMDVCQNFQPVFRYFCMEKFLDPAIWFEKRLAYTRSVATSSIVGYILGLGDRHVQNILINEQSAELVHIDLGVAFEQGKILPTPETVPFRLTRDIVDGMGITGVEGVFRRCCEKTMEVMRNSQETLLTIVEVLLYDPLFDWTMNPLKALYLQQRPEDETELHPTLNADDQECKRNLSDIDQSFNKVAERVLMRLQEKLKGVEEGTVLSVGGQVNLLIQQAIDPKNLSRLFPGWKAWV
# TEST: ATM kinase assay (HTRF)
# Format: biochemical
# TEST CONTEXT: 0.5 h; C 10 μm; read-out: Inh (%) ATM kinase inhibition rate
# do not omit the unit; it follows the number

INPUT: # value lookup — system ATM enzyme (Homo sapiens), readout inhibition at 10 µM, item CN(C)C1CCN(c2ccc(-c3ccc4ncn5c(c(C6CCOCC6)c(=O)n5C)c4c3)cc2Cl)CC1
OUTPUT: 96%

INPUT: GET /values?readout=inhibition at 10 µM&system=ATM enzyme (Homo sapiens)&item= CN(C)C1CCN(c2ccc(-c3ccc4ncn5c(c(C6CCOCC6)c(=O)n5C)c4c3)cc2C(F)(F)F)CC1
OUTPUT: 100%

INPUT: // map CN(C)CCCOc1ccc(-c2ccc3ncn4c(c(C5CCOCC5)c(=O)n4C)c3c2)cn1 to recorded inhibition at 10 µM (system: ATM enzyme (Homo sapiens))
OUTPUT: 96%

INPUT: // map CN(C)C1CCN(c2ccc(-c3ccc4ncn5c(c(C6CCOCC6)c(=O)n5C)c4c3)cc2F)CC1 to recorded inhibition at 10 µM (system: ATM enzyme (Homo sapiens))
OUTPUT: 98%

###

Field: inhibition at 0.1 µM. Provide a value for each of the compounds that follow.
# ASSAYED SYSTEM: ATM enzyme (Homo sapiens)
# Construct: purchased Eurofins 14-933
# TEST: ATM kinase assay (HTRF)
# Format: biochemical
# TEST CONTEXT: 0.5 h; C 0.1 μm; read-out: Inh (%) ATM kinase inhibition rate
# value in %; strip the unit string

INPUT: Give its inhibition at 0.1 µM value. Item: CN(C)C1CCN(c2ccc(-c3ccc4ncn5c(c(C6CCOCC6)c(=O)n5C)c4c3)cc2F)CC1
OUTPUT: 57

INPUT: Look up inhibition at 0.1 µM: CCNC1CCN(c2ccc(-c3ccc4ncn5c(c(C6CCOCC6)c(=O)n5C)c4c3)cc2C(F)(F)F)CC1
OUTPUT: 66

INPUT: Query (compound): CNC1CCN(c2ccc(-c3ccc4ncn5c(c(C6CCOCC6)c(=O)n5C)c4c3)cc2C(F)(F)F)CC1 ; field requested: inhibition at 0.1 µM
OUTPUT: 87

INPUT: Which inhibition at 0.1 µM reading was recorded for the compound CN(C)C1CCN(c2ccc(-c3ccc4ncn5c(c(C6CCOCC6)c(=O)n5C)c4c3)cc2C(F)(F)F)CC1 ?
OUTPUT: 86

INPUT: // query inhibition at 0.1 µM value for entry Cn1c(=O)c(C2CCOCC2)c2c3cc(-c4ccc(OCCCN5CCCCC5)nc4)ccc3ncn21
OUTPUT: 66

INPUT: Requested field: inhibition at 0.1 µM. Item: CN(C)C1CCN(c2ccc(-c3ccc4ncn5c(c(C6CCOCC6)c(=O)n5C)c4c3)cc2Cl)CC1
OUTPUT: 61

INPUT: # lookup: inhibition at 0.1 µM of CN(C)CCCOc1ccc(-c2ccc3ncn4c(c(C5CCOCC5)c(=O)n4C)c3c2)cc1C(F)(F)F
OUTPUT: 61
